- procedure text: Pharmacokinetics in Sprague-Dawley rats, 2-in-1 dosing
- Assay type: in vivo
- test parameters: Sprague-Dawley, rat; PO 5 mg/kg, single dose, plasma (Table 3)
- Description: Sprague-Dawley rats (approximate weight 275-300 g, N=3) were dosed intravenously at 5 mL/kg and orally at 10 mL/kg with the above dosing solutions. Blood samples were collected into tubes containing EDTA as the anticoagulant at 0, 0.25 (intravenous only), 0.5, 1, 2, 4, 8, 10, and 24 h post-dosing, and plasma samples were prepared by centrifugation. […]
result type: Cmax
Field: value (include unit after the number)

Examples with their reported Cmax follow.
molecule: Cc1nc(Nc2ncc(C(=O)Nc3c(C)cccc3Cl)s2)cc(N2CC[C@H](O)C2)n1
Cmax: 93 ng/mL
--
molecule: Cc1nc(Nc2ncc(C(=O)Nc3c(C)cccc3Cl)s2)cc(N2CC[C@@H](O)C2)n1
Cmax: 102 ng/mL

What the record says about "[2H]c1cc(C)c(NC(=O)c2cnc(Nc3cc(N4CCN(CCO)CC4)nc(C)n3)s2)c(Cl)c1" : Cmax is 11 ng/mL

What the record says about Cc1nc(Nc2ncc(C(=O)Nc3c(C)cccc3Cl)s2)cc(N2CCN(CCO)CC2)n1 [Dasatinib, reference compound] : Cmax is 7 ng/mL

###

Each entry below lists one item and its recorded half-life value.
- procedure text: Pharmacokinetics in Sprague-Dawley rats, 2-in-1 dosing
- Assay type: in vivo
- test parameters: Sprague-Dawley, rat, plasma, po, 5 mg/kg, PO 5 mg/kg, single dose, plasma (Table 3); read-out: t½ (converted)
- Protocol: Sprague-Dawley rats (approximate weight 275-300 g, N=3) were dosed intravenously at 5 mL/kg and orally at 10 mL/kg with the above dosing solutions. Blood samples were collected into tubes containing EDTA as the anticoagulant at 0, 0.25 (intravenous only), 0.5, 1, 2, 4, 8, 10, and 24 h post-dosing, and plasma samples were prepared by centrifugation. […]
Entry rule: numbers only, all in h.

Examples with their reported half-life follow.
compound: Cc1nc(Nc2ncc(C(=O)Nc3c(C)cccc3Cl)s2)cc(N2CCN(CCO)CC2)n1 [Dasatinib, reference compound]
half-life / h: 5.9
//
compound: Cc1nc(Nc2ncc(C(=O)Nc3c(C)cccc3Cl)s2)cc(N2CC[C@H](O)C2)n1 [Compound X]
half-life / h: 6.8
//
compound: Cc1nc(Nc2ncc(C(=O)Nc3c(C)cccc3Cl)s2)cc(N2CC[C@@H](O)C2)n1 [Compound XI]
half-life / h: 6

What the record says about [2H]c1cc(C)c(NC(=O)c2cnc(Nc3cc(N4CCN(CCO)CC4)nc(C)n3)s2)c(Cl)c1 [Compound III] : half-life is 8.2

###

- procedure text: Pharmacokinetics in Sprague-Dawley rats, 2-in-1 dosing
- Type: in vivo
- test parameters: Sprague-Dawley, rat, plasma; PO 2.5 mg/kg versus intravenous 1 mg/kg, AUCinf dose normalized (Table 2); read-out: F (percent oral bioavailability)
result type: bioavailability (%)
Entry rule: numbers only, all in %.

Examples with their reported bioavailability follow.
compound: [2H]c1cc(C)c(NC(=O)c2cnc(Nc3cc(N4CC[C@@H](O)C4)nc(C)n3)s2)c(Cl)c1 [Compound V]
result type: bioavailability
recorded number: 11.1

compound: Cc1nc(Nc2ncc(C(=O)Nc3c(C)cccc3Cl)s2)cc(N2CCN(CCO)CC2)n1 [Dasatinib, reference compound]
result type: bioavailability
recorded number: 9.8

compound: [2H]c1cc(C)c(NC(=O)c2cnc(Nc3cc(N4CCN(CCO)CC4)nc(C)n3)s2)c(Cl)c1 [Compound III]
result type: bioavailability
recorded number: 7.2

Now take the following compound into account.
What the record says about [2H]c1cc(C)c(NC(=O)c2cnc(Nc3cc(N4CC[C@H](O)C4)nc(C)n3)s2)c(Cl)c1 [Compound IV] : bioavailability is 18.9

###

Each entry below lists one item and its recorded AUC(0-inf) value.
- procedure text: Pharmacokinetics in Sprague-Dawley rats, 2-in-1 dosing
- Type: in vivo
- test parameters: Sprague-Dawley, rat, plasma, iv, 1 mg/kg, intravenous 1 mg/kg, single dose, plasma (Table 2)
Entry rule: numbers only, all in ng·h/mL.

molecule: [2H]c1cc(C)c(NC(=O)c2cnc(Nc3cc(N4CC[C@@H](O)C4)nc(C)n3)s2)c(Cl)c1
AUC(0-inf), ng·h/mL: 1960
--
molecule: [2H]c1cc(C)c(NC(=O)c2cnc(Nc3cc(N4CC[C@H](O)C4)nc(C)n3)s2)c(Cl)c1
AUC(0-inf), ng·h/mL: 1880

What the record says about "[2H]c1cc(C)c(NC(=O)c2cnc(Nc3cc(N4CCN(CCO)CC4)nc(C)n3)s2)c(Cl)c1" : AUC(0-inf) is 835

What the record says about Cc1nc(Nc2ncc(C(=O)Nc3c(C)cccc3Cl)s2)cc(N2CCN(CCO)CC2)n1 [Dasatinib, reference compound] : AUC(0-inf) is 784

###

- procedure text: Pharmacokinetics in Sprague-Dawley rats, 2-in-1 dosing
- Format: in vivo
- test parameters: Sprague-Dawley, rat, plasma, po, 2.5 mg/kg, PO 2.5 mg/kg, single dose, plasma (Table 2)
Each entry below lists one item and its recorded AUC(0-inf) value.
Entry rule: numbers only, all in ng·h/mL.

molecule: [2H]c1cc(C)c(NC(=O)c2cnc(Nc3cc(N4CCN(CCO)CC4)nc(C)n3)s2)c(Cl)c1 [Compound III]
display unit: ng·h/mL
AUC(0-inf): 144
--
molecule: [2H]c1cc(C)c(NC(=O)c2cnc(Nc3cc(N4CC[C@@H](O)C4)nc(C)n3)s2)c(Cl)c1 [Compound V]
display unit: ng·h/mL
AUC(0-inf): 539
--
molecule: [2H]c1cc(C)c(NC(=O)c2cnc(Nc3cc(N4CC[C@H](O)C4)nc(C)n3)s2)c(Cl)c1 [Compound IV]
display unit: ng·h/mL
AUC(0-inf): 892

Now take the following molecule into account.
What the record says about Cc1nc(Nc2ncc(C(=O)Nc3c(C)cccc3Cl)s2)cc(N2CCN(CCO)CC2)n1 [Dasatinib, reference compound] : AUC(0-inf) is 196

###

- procedure text: Pharmacokinetics in Sprague-Dawley rats, 2-in-1 dosing
- Format: in vivo
- test parameters: Sprague-Dawley, rat, plasma, iv, 1 mg/kg, intravenous 1 mg/kg, single dose (Table 3); read-out: V (volume of distribution)
Each entry below lists one item and its recorded Vd value.
Entry rule: numbers only, all in L/kg.

What the record says about Cc1nc(Nc2ncc(C(=O)Nc3c(C)cccc3Cl)s2)cc(N2CCN(CCO)CC2)n1 [Dasatinib, reference compound] : Vd is 2

What the record says about "Cc1nc(Nc2ncc(C(=O)Nc3c(C)cccc3Cl)s2)cc(N2CC[C@@H](O)C2)n1" : Vd is 1

What the record says about "Cc1nc(Nc2ncc(C(=O)Nc3c(C)cccc3Cl)s2)cc(N2CC[C@H](O)C2)n1" : Vd is 1

What the record says about "[2H]c1cc(C)c(NC(=O)c2cnc(Nc3cc(N4CCN(CCO)CC4)nc(C)n3)s2)c(Cl)c1" : Vd is 3

###

- procedure text: Metabolic stability in human liver microsomes
- Type: in vitro ADME
- test parameters: human, liver microsomes, 1 μM, human liver microsomes 0.5 mg/mL, NADPH and UDPGA, 37° C.; read-out: In vitro t1/2
Each entry below lists one item and its recorded half-life at 1 μM value.

Examples with their reported half-life at 1 μM follow.
compound structure string: [2H]c1cc(C)c(NC(=O)c2cnc(Nc3cc(N4CC[C@@H](O)C4)nc(C)n3)s2)c(Cl)c1
result: > 59 min

compound structure string: Cc1nc(Nc2ncc(C(=O)Nc3c(C)cccc3Cl)s2)cc(N2CC[C@H](O)C2)n1
result: > 59 min

Now take the following molecule into account.
What the record says about "[2H]c1cc(C)c(NC(=O)c2cnc(Nc3cc(N4CCN(CCO)CC4)nc(C)n3)s2)c(Cl)c1" : half-life at 1 μM is 24 min

###

Each entry below lists one item and its recorded Vd value.
- procedure text: Pharmacokinetics in Sprague-Dawley rats, 2-in-1 dosing
- Format: in vivo
- test parameters: Sprague-Dawley, rat, plasma, iv, 1 mg/kg, intravenous 1 mg/kg, single dose (Table 2); read-out: V (volume of distribution)

Examples with their reported Vd follow.
compound: [2H]c1cc(C)c(NC(=O)c2cnc(Nc3cc(N4CCN(CCO)CC4)nc(C)n3)s2)c(Cl)c1
Vd: 3 L/kg
--
compound: [2H]c1cc(C)c(NC(=O)c2cnc(Nc3cc(N4CC[C@H](O)C4)nc(C)n3)s2)c(Cl)c1
Vd: 1 L/kg
--
compound: [2H]c1cc(C)c(NC(=O)c2cnc(Nc3cc(N4CC[C@@H](O)C4)nc(C)n3)s2)c(Cl)c1
Vd: 1 L/kg

What the record says about Cc1nc(Nc2ncc(C(=O)Nc3c(C)cccc3Cl)s2)cc(N2CCN(CCO)CC2)n1 [Dasatinib, reference compound] : Vd is 3 L/kg

###

- procedure text: Pharmacokinetics in Sprague-Dawley rats, 2-in-1 dosing
- Assay type: in vivo
- test parameters: Sprague-Dawley, rat, plasma, iv, 1 mg/kg, intravenous 1 mg/kg, single dose (Table 2); read-out: CL (plasma clearance) (converted)
Each entry below lists one item and its recorded clearance value.
Entry rule: numbers only, all in mL/min/kg.

Examples with their reported clearance follow.
molecule: [2H]c1cc(C)c(NC(=O)c2cnc(Nc3cc(N4CC[C@H](O)C4)nc(C)n3)s2)c(Cl)c1 [Compound IV]
recorded number: 8.92
//
molecule: Cc1nc(Nc2ncc(C(=O)Nc3c(C)cccc3Cl)s2)cc(N2CCN(CCO)CC2)n1 [Dasatinib, reference compound]
recorded number: 21.3

What the record says about [2H]c1cc(C)c(NC(=O)c2cnc(Nc3cc(N4CCN(CCO)CC4)nc(C)n3)s2)c(Cl)c1 [Compound III] : clearance is 20.2

What the record says about [2H]c1cc(C)c(NC(=O)c2cnc(Nc3cc(N4CC[C@@H](O)C4)nc(C)n3)s2)c(Cl)c1 [Compound V] : clearance is 8.57
